Quick reference for viability, T/C among some compounds
- Tested on: LG0567-F671-PDC KRAS tumor spheroid viability;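 also: drug exposure lasted seven days after spheroids formed for three days; 100% = DMSO vehicle control viability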
- method.description: Anticancer human tumor LG0567-F671-PDC patient-derived lung adenocarcinoma cell line growth inhibition [KRAS2]
- run.conditions: second compound 3.16 µM; first compound 1 µM; hits give low values; spheroids with HUVEC and MSC
Respond numerically; units are % and should not be typed.

[[record]]
compound = "CC(C)NCC(C(=O)N1CCN(c2ncnc3c2C(C)CC3O)CC1)c1ccc(Cl)cc1 (stereo not given) + COc1cc2nc(C)nc(NC(C)c3cc(N)cc(C(F)(F)F)c3)c2cc1OC1CCOC1"
attribute_measured = "viability, T/C"
reading = 12

[[record]]
compound = "COc1cc(Nc2ncc3c(n2)-c2ccc(Cl)cc2C(c2c(F)cccc2OC)=NC3)ccc1C(=O)O + C=CC(=O)N1CCN(c2nc(OCC3CCCN3C)nc3c2CCN(c2cccc4cccc(C)c24)C3)CC1CC#N"
attribute_measured = "viability, T/C"
reading = 23.7


# query: viability, T/C | item Cn1nccc1Nc1nccc(-c2cc3c(s2)C(C)(C)N(CCN2CCOCC2)C3=O)n1 + COc1cc2nc(C)nc(NC(C)c3cc(N)cc(C(F)(F)F)c3)c2cc1OC1CCOC1 | system: LG0567-F671-PDC KRAS tumor spheroid viability 42.9

Now try CC(=O)OC12COC1CC(O)C1(C)C(=O)C(O)C3=C(C)C(OC(=O)C(O)C(NC(=O)OC(C)(C)C)c4ccccc4)CC(O)(C(OC(=O)c4ccccc4)C21)C3(C)C (stereo not given) + C=CC(=O)N1CCN(c2nc(=O)n(-c3c(C)ccnc3C(C)C)c3nc(-c4c(O)cccc4F)c(F)cc23)C(C)C1 . 13.2

Now try CCNC(=O)CC1N=C(c2ccc(Cl)cc2)c2cc(OC)ccc2-n2c(C)nnc21 (stereo not given) + CNCc1ccccc1-c1csc(C(C)Nc2nc(C)nc3cc(OC)c(OC)cc23)c1 . 0.1
